# IC50 per entry
biological target: EGFR (d746-750) (Homo sapiens, UniProt P00533, DEL746-750); construct: purchased SignalChem E10-122JG; experiment: Biochemical EGFR inhibition assay (Caliper mobility shift), EGFR (d746-750); details: 1.0 mM ATP or ATP Km; room temperature (25° C.); read-out: Enz EGFR_Exon19-del746-750 IC50
Sequence (P00533 with tags, fused parts or gaps DEL746-750 limits assumed): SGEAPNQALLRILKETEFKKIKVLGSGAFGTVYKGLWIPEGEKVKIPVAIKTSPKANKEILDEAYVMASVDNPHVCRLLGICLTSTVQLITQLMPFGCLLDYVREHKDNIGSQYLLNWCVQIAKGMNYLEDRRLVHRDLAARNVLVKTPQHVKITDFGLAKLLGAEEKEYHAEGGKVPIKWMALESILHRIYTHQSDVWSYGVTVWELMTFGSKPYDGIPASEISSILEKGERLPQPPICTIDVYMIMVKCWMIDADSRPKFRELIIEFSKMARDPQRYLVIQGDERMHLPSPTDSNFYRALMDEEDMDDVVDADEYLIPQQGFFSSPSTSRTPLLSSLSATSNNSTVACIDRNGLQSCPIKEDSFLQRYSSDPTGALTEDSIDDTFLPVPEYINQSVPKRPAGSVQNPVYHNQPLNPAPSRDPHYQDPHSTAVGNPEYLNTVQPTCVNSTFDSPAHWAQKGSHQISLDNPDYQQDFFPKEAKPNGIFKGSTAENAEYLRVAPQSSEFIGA

Study these solved cases before continuing.
C[C@H](Oc1cc(-c2cnn(C)c2)cc2ncnc(Nc3ccc4ncccc4c3F)c12)[C@@H]1CCCN1C (single isomer, unassigned) [Example 145] = 10.1 to 50 nM
C[C@H](CN(C)C)Oc1cc(-c2cnn(C)c2)cc2ncnc(Nc3ccc4ncccc4c3)c12 (single isomer, unassigned) [Example 43] = 10.1 to 50 nM
C[C@H](CN(C)C)Oc1cc(-c2cnn(C)c2)cc2ncnc(Nc3ccc4ncccc4c3F)c12 (single isomer, unassigned) [Example 5] = < 10 nM
CO[C@H]1CCN(c2cc(O[C@H](C)CN(C)C)c3c(Nc4ccc5ncccc5c4F)ncnc3c2)C1 (single isomer, unassigned) [Example 87b] = < 10 nM
C[C@@H](Oc1cc(-c2cnn(C)c2)cc2ncnc(Nc3ccc4ncccc4c3F)c12)[C@@H]1COCCN1 (single isomer, unassigned) [Example 124] = < 10 nM

We next turn to a different compound, shown below.
Fill in the recorded IC50 for this compound, with EGFR (d746-750) (Homo sapiens, UniProt P00533, DEL746-750) as test system: C[C@H](CN(C)C)Oc1cc(N2CCO[C@@H](C(F)F)C2)cc2ncnc(Nc3ccc4ncccc4c3F)c12 (single isomer, unassigned) [Example 99a]
< 10 nM
